Data provenance is ChEMBL document CHEMBL3045628.

Please provide measured -logMIC for the entries that follow.
- System: Bacillus cereus
- assay.info: Antimicrobial activity against Bacillus cereus RSKK 863 after 24 hr by broth microdilution assay
- Format: functional
Format: numeric value only, no unit, no commentary.

Lookup: May I ask what -logMIC has been recorded for CCCCS(=O)(=O)NCCCCNS(=O)(=O)CCCC ?
Found: 2.85

Lookup: Same for COc1ccc(S(=O)(=O)NCCNS(=O)(=O)c2ccc(OC)cc2)cc1
Found: 3.46

Lookup: Would you mind doing COc1ccccc1S(=O)(=O)NCCCNS(=O)(=O)c1ccccc1OC as well?
Found: 3.6

Lookup: What would you report for CCS(=O)(=O)NCCNS(=O)(=O)CC ?
Found: 2.66

Lookup: // same read-out, input: CCS(=O)(=O)NCCCCNS(=O)(=O)CC
Found: 2.638

Lookup: Check Cc1ccc(S(=O)(=O)NCCCNS(=O)(=O)c2ccc(C)cc2)cc1 too.
Found: 3.38

Lookup: How about Cc1ccc(S(=O)(=O)NCCCCNS(=O)(=O)c2ccc(C)cc2)cc1 ?
Found: 3.35

Lookup: Subsequent entry: O=S(=O)(NCCCCNS(=O)(=O)c1ccccc1)c1ccccc1
Found: 3.358

Lookup: And the next one, COc1ccc(S(=O)(=O)NCCCNS(=O)(=O)c2ccc(OC)cc2)cc1 ?
Found: 3.42

Lookup: Now consider CCCCS(=O)(=O)NCCNS(=O)(=O)CCCC .
Found: 2.83

Lookup: Then CCS(=O)(=O)NCCCNS(=O)(=O)CC ?
Found: 2.642

Lookup: For Cc1ccccc1S(=O)(=O)NCCCCNS(=O)(=O)c1ccccc1C then?
Found: 3.505

* * *

- System: Bacillus cereus
- assay.info: Antimicrobial activity against Bacillus cereus RSKK 863 after 24 hr by broth microdilution assay
- Type: functional
Kindly state -logMIC for each of the entries shown.
# answer = number (no unit)

Lookup: API: value(readout= -logMIC, system= Bacillus cereus, query= CS(=O)(=O)NCCNS(C)(=O)=O )
Found: 2.876

Lookup: Now this one: Cc1cccc(S(=O)(=O)NCCCCNS(=O)(=O)c2cccc(C)c2)c1
Found: 3.41

Lookup: COc1cccc(S(=O)(=O)NCCCNS(=O)(=O)c2cccc(OC)c2)c1 , same question.
Found: 3.55

Lookup: // repeat for Cc1cccc(S(=O)(=O)NCCNS(=O)(=O)c2cccc(C)c2)c1 and report
Found: 3.48

Lookup: What would you report for CCCS(=O)(=O)NCCCCNS(=O)(=O)CCC ?
Found: 2.95

Lookup: What do you get for CCCS(=O)(=O)NCCCNS(=O)(=O)CCC ?
Found: 3.058

* * *

- System: Staphylococcus aureus
- assay.info: Antimicrobial activity against Staphylococcus aureus ATCC 25923 after 24 hr by broth microdilution assay
- Assay type: functional
measurement.type: -logMIC
Answer with the value's number alone.

Lookup: What -logMIC value was documented for this compound, O=S(=O)(NCCCCNS(=O)(=O)c1ccccc1)c1ccccc1 ?
Found: 3.24

Lookup: Now give it for CCCCS(=O)(=O)NCCCNS(=O)(=O)CCCC too.
Found: 2.861

Lookup: Here is the next compound: CCCS(=O)(=O)NCCNS(=O)(=O)CCC
Found: 3.003

Lookup: And CCCS(=O)(=O)NCCCNS(=O)(=O)CCC ?
Found: 3.009

Lookup: What about this compound? Cc1ccc(S(=O)(=O)NCCCNS(=O)(=O)c2ccc(C)cc2)cc1
Found: 3.3

Lookup: Please give the result for Cc1ccc(S(=O)(=O)NCCNS(=O)(=O)c2ccc(C)cc2)cc1 too.
Found: 3.4

Lookup: Moving on to COc1ccc(S(=O)(=O)NCCCNS(=O)(=O)c2ccc(OC)cc2)cc1
Found: 3.46

Lookup: Please do the same for CS(=O)(=O)NCCNS(C)(=O)=O as well.
Found: 2.99

Lookup: Entry to check: CS(=O)(=O)NCCCCCNS(C)(=O)=O
Found: 2.88

Lookup: Next: COc1ccccc1S(=O)(=O)NCCCNS(=O)(=O)c1ccccc1OC
Found: 3.55

Lookup: Moving on to the next compound: COc1ccccc1S(=O)(=O)NCCNS(=O)(=O)c1ccccc1OC
Found: 3.58

Lookup: CCS(=O)(=O)NCCCCNS(=O)(=O)CC , same question.
Found: 2.637
